The origin of these recorded values is the supplement of paper PMC10724198.

System: Saccharomyces cerevisiae;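 further: PSI is a weighted mean of sequencing reads over stability bins, variants kept only with over 10 reads, mCherry proximal and sfGFP distal, peptide attached via GGGS linker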
Assay: protein stability index of tFT-peptide fusion (C-terminal peptide) (PSI (0-1 scale)); higher = more stable (slower turnover)
Conditions: genetic background: wild type; temperature: 30 C
So I've got a bunch of sequences here, and I need their protein stability index values.
One number for each entry.

| ITEM_SEQUENCE | VALUE_KIND | RESULT |
| --- | --- | --- |
| GFLWFCGVPVGW | protein stability index | 0.571 |

Report protein stability index for every entry below.
1. SFGLSYYFRNSL
2. GVEFKVVSFVVD
3. FFPQPTPVSISR
4. RVTVWHELTVDC
5. FLSLAAPQSGGA
6. DRDRVLLRGYRH

1. 0.731
2. 0.646
3. 0.826
4. 0.569
5. 0.693
6. 0.571

// for each sequence below, give its protein stability index
1. PGRLTTERLSFQ
2. RASFLLPPPAPP
3. RGLVSPPPPLPS

1: 0.7; 2: 0.631; 3: 0.681
